- experimentSummary: qHTS Assay for Lipid Storage Modulators in Drosophila S3 Cells;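 for cell number change: cells counted by Cell Tracker Red CMTPX staining in the red channel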
- setupConditions: BODIPY lipid droplet fluorescence, 18-24 h, cells fed with added oleic acid; measured here: cell count max response
The whole screen tested about 320,000 compounds, of which about 2,100 (0.66%) were called active. Roughly 53% stayed inconclusive and do not appear here. The entries come from a sample that favours actives as a whole.
As shown below, each of these compounds has a reported cell number change value.
Answer with the value and then the unit.

1. CCN(CC)S(=O)(=O)c1cccc(-c2nnc(SCC(=O)c3cc(C)n(C4CC4)c3C)o2)c1 :: 13.6%
2. CSCCC(NS(=O)(=O)c1ccccc1F)C(=O)NNC(=O)c1csc(N2CCOCC2)n1 (stereo not given) :: -7.74%
3. Cc1ccc(-c2nnc(SCC(=O)Nc3ccc(N4CCOCC4)cc3)o2)cc1 :: -5.45%
4. Cc1cccc(NC(=O)CNC(=O)COc2ccc(C(=O)c3ccc(F)cc3)cc2)c1C :: 8.34%

Respond only with cell number change recorded for "COc1ccc(-n2c(C)cc(C(=O)NC3CCCCC3)c2C)cc1"
-26.1%

---

- experimentSummary: qHTS Assay for Lipid Storage Modulators in Drosophila S3 Cells;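 for cell number change: cells counted by Cell Tracker Red CMTPX staining in the red channel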
- setupConditions: BODIPY lipid droplet fluorescence, 18-24 h, cells fed with added oleic acid; measured here: cell count max response
Out of some 320,000 compounds screened, about 2,100 (0.66%) were called active. Roughly 53% stayed inconclusive and do not appear here. Shown is part of a subset that was picked to be rich in actives.
As shown below, each of these compounds has a reported cell number change value.
Response body: numeric value in %, unit text excluded.

1) COc1ccc2[nH]cc(CCNC(=O)COc3cc(C)cc4oc(=O)cc(C)c34)c2c1 :: -0.087

Respond only with cell number change recorded for "COC(=O)c1cn(CC(=O)Nc2ccccc2C)c2ccccc12"
8.8

Respond only with cell number change recorded for "CCOc1ccc(OCC)c(S(=O)(=O)NCc2ccccn2)c1"
-15.9

Respond only with cell number change recorded for "COc1ccc(C(=O)NCCc2c[nH]c3ccccc23)cc1OC"
-1.75

Respond only with cell number change recorded for "CCCc1cc(=O)oc2cc(OCC(=O)NCCc3ccc(S(N)(=O)=O)cc3)ccc12"
-10.3

---

- experimentSummary: qHTS Assay for Lipid Storage Modulators in Drosophila S3 Cells
- setupConditions: BODIPY lipid droplet fluorescence, 18-24 h, cells fed with added oleic acid; series mostly up to 46.1 µM
In all, about 320,000 compounds went through this assay and about 2,100 (0.66%) were called active. Not shown: some 53% with an inconclusive outcome. The call rests on the fitted dose curve; in most records, active means well fitted inhibition curve with a large enough effect in the signal ratio, with a control signal flat (not every such curve was filed as active); inconclusive means small, poorly fitted or top-dose-only effect, or effect the other way, or a change in a side signal; inactive means flat fitted curve, though single readings scatter; the % refers to the signal ratio. This is one part of a sample in which actives are shown more often than they occur.
Give your call using only these classes: 1.0 for active, 0.0 for inactive

Check out these entries, answers already filled in.
1) CCCCN(C(=O)C1CC(=O)N(c2ccc(C)cc2)C1)c1c(N)n(CCC)c(=O)[nH]c1=O (stereo not given) :: 1.0
2) Cc1cc2ncn(-c3ncnc4sc5c(c34)CCCC5)c2cc1C :: 0.0
3) CCCCN(C(=O)C1CC(=O)N(Cc2ccc(C)cc2)C1)c1c(N)n(CCCC)c(=O)[nH]c1=O (stereo not given) :: 0.0

What did the test return for "COC(=O)c1ccc(COc2ccc(C=O)cc2)o1" ?
0.0

What did the test return for "Cc1ccc(/C=N/NC(=O)c2csc3c2CCCC3)cc1" ?
1.0

---

- experimentSummary: qHTS Assay for Lipid Storage Modulators in Drosophila S3 Cells; note: potency is the fitted concentration of half-maximal effect
- setupConditions: BODIPY lipid droplet fluorescence, 18-24 h, cells fed with added oleic acid; series mostly up to 46.1 µM
The campaign covered roughly 320,000 compounds. About 2,100 (0.66%) were called active. Roughly 53% stayed inconclusive and do not appear here. This excerpt belongs to a sample that is enriched for actives.
reportedEndpoint: Potency

// known answers, use as guide
1) CC(=O)N1CC2(NC(=O)c3ccccc3N2)c2ccccc21 (centres undefined) :: inactive
2) CN(C)S(=O)(=O)N1CCN(C(=O)c2ccccc2)CC1 :: 23.1 µM (active)
3) Cc1csc(NC(=O)CCS(=O)(=O)c2ccc(Br)cc2)n1 :: inactive
4) CS(=O)(=O)c1ccccc1C(=O)Nc1cccc(-c2nc3ccccc3o2)c1 :: 13 µM (active)
5) CCCN(c1ccccc1C(=O)O)S(=O)(=O)c1ccc2c(c1)n(C)c(=O)n2C :: inactive
6) O=C(NCCN1C(=O)S/C(=C\c2cccc(Cl)c2Cl)C1=O)C1=COCCO1 :: 11.6 µM (active)
7) CCCCNC(=O)CN(c1cc(C(F)(F)F)ccc1Cl)S(C)(=O)=O :: inactive
8) O=C(O)c1cc(=O)c2cc(Cl)ccc2o1 :: 23.1 µM (active)
9) Cc1ccc(S(=O)(=O)CC(=O)Nc2nc(-c3ccccc3)cs2)cc1 :: inactive
10) O=C(Nc1cc(Cl)ccc1Oc1ccccc1)C1=COCCO1 :: inactive

Respond only with Potency recorded for "Cn1cc(CNC(=O)c2ccc(OC3CCN(Cc4ccccn4)CC3)cc2)cn1"
inactive

---

- experimentSummary: qHTS Assay for Lipid Storage Modulators in Drosophila S3 Cells
- setupConditions: BODIPY lipid droplet fluorescence, 18-24 h, cells fed with added oleic acid; series mostly up to 46.1 µM
Out of some 320,000 compounds screened, about 2,100 (0.66%) were called active. About 53% were inconclusive and are not listed. Calls follow the shape of the dose curve; as a rule, active = well fitted inhibition curve with a large enough effect in the signal ratio, with a control signal flat (not every such curve was filed as active); inconclusive = small, poorly fitted or top-dose-only effect, or effect the other way, or a change in a side signal; inactive = flat fitted curve, though single readings scatter; the % refers to the signal ratio. Many of the other results were omitted from the sample, so actives are more common in it than they were.
Give your call using only these classes: T (active), F (inactive)

Check out these entries, answers already filled in.
1) COc1ccc(CSc2nnc(C)s2)cc1F :: F
2) CCCC(O)(CCC)C(=O)NN(C(=O)CCl)c1cccc(C)c1 :: T

Now examine the next entry.
What did the test return for "Cc1cccc(N(NC(=O)C(C)(C)O)C(=O)c2ccccc2)c1" ?
F

---

As shown below, each of these molecules has a reported cell number change value.
- experimentSummary: qHTS Assay for Lipid Storage Modulators in Drosophila S3 Cells;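 for cell number change: cells counted by Cell Tracker Red CMTPX staining in the red channel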
- setupConditions: BODIPY lipid droplet fluorescence, 18-24 h, cells fed with added oleic acid; measured here: cell count max response
In all, about 320,000 compounds went through this assay and about 2,100 (0.66%) were called active. Another 53% or so got no clear call; they are omitted. The sample as a whole holds a higher share of actives than the screen did.
Response body: numeric value in %, unit text excluded.

// known answers, use as guide
1. O=C1OCCC1Sc1nnc(-c2ccc3c(c2)OCO3)o1 (stereo unspecified) :: 15.3
2. O=C1OCCC1Sc1nnc(-c2cccc(Br)c2)o1 (stereo unspecified) :: -11.2
3. CCOC(=O)c1[nH]c2cc(OC)c(OC)cc2c1NC(=O)c1nonc1C :: -8.79

Respond only with cell number change recorded for "COc1ccc([N+](=O)[O-])cc1NC(=O)CSCc1ccccc1"
-5.97

Respond only with cell number change recorded for "CCOC(=O)c1[nH]c2ccccc2c1NC(=O)c1nonc1C"
103

Respond only with cell number change recorded for "Cc1sc2nc(CN3CCOCC3)[nH]c(=O)c2c1-c1ccccc1"
-18.1

---

As shown below, each of these compounds has a reported cell number change value.
- experimentSummary: qHTS Assay for Lipid Storage Modulators in Drosophila S3 Cells;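 for cell number change: cells counted by Cell Tracker Red CMTPX staining in the red channel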
- setupConditions: BODIPY lipid droplet fluorescence, 18-24 h, cells fed with added oleic acid; measured here: cell count max response
Screen size: about 320,000 compounds; about 2,100 (0.66%) were called active. About 53% were inconclusive and are not listed. What follows is part of a selection rich in actives, with near analogues and random picks from the rest.
Answer with the value and then the unit.

Respond only with cell number change recorded for "CCOC(=O)C1CCN(C(=O)CCNC(=O)Cn2ccc3ccccc3c2=O)CC1"
0.532%

---

- experimentSummary: qHTS Assay for Lipid Storage Modulators in Drosophila S3 Cells
- setupConditions: BODIPY lipid droplet fluorescence, 18-24 h, cells fed with added oleic acid; series mostly up to 46.1 µM
In all, about 320,000 compounds went through this assay and about 2,100 (0.66%) were called active. Another 53% or so got no clear call; they are omitted. Calls come from the whole dose curve; as a rule, active = well fitted inhibition curve with a large enough effect in the signal ratio, with a control signal flat (not every such curve was filed as active); inconclusive = small, poorly fitted or top-dose-only effect, or effect the other way, or a change in a side signal; inactive = flat fitted curve, though single readings scatter; the % refers to the signal ratio. The sample as a whole holds a higher share of actives than the screen did.
Give your call using only these classes: active, inactive

Check out these entries, answers already filled in.
1) NC(=O)Cn1nc([N+](=O)[O-])nc1Oc1ccc(Br)cc1 :: inactive
2) O=C(O)c1ccccc1C(=O)N1CCN(c2ccccc2)CC1 :: inactive
3) CCCCc1nnc(NC(=O)CSc2nc(O)c(-c3ccccc3)c(=O)[nH]2)s1 :: inactive
4) NC(=O)Cn1nc([N+](=O)[O-])nc1Oc1ccccc1C(=O)N1CCOCC1 :: active
5) COc1ccc(NS(=O)(=O)CC23CCC(CC2=O)C3(C)C)cc1 (stereo unspecified) :: inactive

What did the test return for COc1cccc(NS(=O)(=O)CC23CCC(CC2=O)C3(C)C)c1 (stereo unspecified) ?
active

What did the test return for "O=C(c1ccccc1Oc1ccccc1)N1CCN(c2ccc(F)cc2)CC1" ?
inactive

What did the test return for "Cc1cc(=O)oc2c3c(cc(OCC(=O)N4CCC(C(=O)O)CC4)c12)OC(C)(C)CC3" ?
inactive

What did the test return for "CNC(=O)C(=O)Nc1cc2c3c(c1)CCN3C(=O)CC2" ?
inactive

What did the test return for "CC(C)NC(=O)C(=O)Nc1cc2c3c(c1)CCC(=O)N3CCC2" ?
active

What did the test return for "O=C(NCCO)C(=O)Nc1cc2c3c(c1)CCN3C(=O)CC2" ?
inactive
